Biological target: human GPR40 receptor (Homo sapiens (Human), UniProt O14842)
Sequence (O14842 whole entry): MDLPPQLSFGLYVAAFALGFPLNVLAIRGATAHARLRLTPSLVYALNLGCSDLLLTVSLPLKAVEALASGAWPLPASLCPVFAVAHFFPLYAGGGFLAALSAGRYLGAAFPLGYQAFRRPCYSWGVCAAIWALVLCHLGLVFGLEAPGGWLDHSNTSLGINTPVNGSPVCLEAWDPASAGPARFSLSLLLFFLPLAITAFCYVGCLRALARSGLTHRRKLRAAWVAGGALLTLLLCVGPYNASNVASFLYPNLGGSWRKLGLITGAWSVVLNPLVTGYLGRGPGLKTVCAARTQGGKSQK
Test: IP1 accumulation measurements using the IPOne assay system
Assay type: cell-based
Conditions: 1321N1 cells stably expressing human GPR40, 1 h stimulation; read-out: EC50
Method: IP1 accumulation measurements using the IPOne assay system—1321N1 cells stably expressing human GPR40 receptor (Euroscreen, Belgium) are seeded 24 h before the assay in white 384-well plates in culture medium containing 10% FCS, 1% Na-Pyruvate and 400 μg/mL G418. IP1 is assayed according to the manufacturer's description (Cisbio Bioassays, France). […] After an incubation time of 1 h at room temperature plates are measured using an EnVision™, Perkin Elmer. […]
pEC50: −log10 of the molar value.
Metric: pEC50

Here is how some compounds turned out for pEC50.
INSERT INTO measurements (compound, value_measured) VALUES
  ('Cc1cc(-c2nnn(C)n2)cc(C)c1-c1ccc(F)c2c1CC[C@H]2Nc1ccc([C@H]2C[C@@H]2C(=O)O)nc1', 8.52),
  ('Cc1cc(OCC2(O)CCS(=O)(=O)CC2)cc(C)c1-c1ccc(F)c2c1CC[C@H]2Nc1ccc([C@H]2C[C@@H]2C(=O)O)nc1', 7.74),
  ('Cc1cc(-c2ccn(C)c(=O)n2)cc(C)c1-c1ccc(F)c2c1CC[C@H]2Nc1ccc([C@H]2C[C@@H]2C(=O)O)nc1', 8.30),
  ('Cc1cc(OCC2CCOC2)cc(C)c1-c1ccc(F)c2c1CC[C@H]2Nc1ccc([C@H]2C[C@@H]2C(=O)O)nc1 (stereo partly shown)', 8.15),
  ('Cc1cc(-c2nnn(C)n2)cc(C)c1-c1cccc2c1CC[C@H]2Nc1ccc([C@H]2C[C@@H]2C(=O)O)nc1', 8.52);

A. CNC(=O)c1cc(C)c(-c2ccc(F)c3c2CC[C@H]3Nc2ccc([C@H]3C[C@@H]3C(=O)O)nc2)c(C)c1
B. Cc1cc(OCCC(C)(C)O)cc(C)c1-c1ccc(F)c2c1CC[C@H]2Nc1ccc(C2C[C@@H]2C(=O)O)nc1 (stereo partly shown)
When the recorded pEC50 values are compared, which is smaller: that of A or that of B ? Record your answer as the label of the chosen record.
A
(A: 6.83, B: 7.96)

----------
Assay: Chemical stability (degradation kinetics) in acidic aqueous media
Assay type: physicochemical
Conditions: pH value ca. 1.2 (acetonitrile/0.1 M aqueous HCl 2:3), 37° C.
Metric: Amount of degradation after 2 h (%)

INSERT INTO measurements (compound, metric, value_measured) VALUES
  ('Cc1cc(OCCC(C)(C)O)cc(C)c1-c1ccc(F)c2c1CC[C@H]2Oc1ccc([C@H]2C[C@@H]2C(=O)O)cc1 [Example 17 in WO 2013/178575, reference compound]', 'Amount of degradation after 2 h', 8);

P. Cc1cc(-c2nnn(C)n2)cc(C)c1-c1ccc(F)c2c1CC[C@H]2Oc1ccc([C@H]2C[C@@H]2C(=O)O)cc1 [Example 15 in WO 2013/178575]
Q. Cc1cc(-c2nnn(C)n2)cc(C)c1-c1ccc(F)c2c1CC[C@H]2Oc1ccc([C@H]2C[C@@H]2C(=O)O)cc1 [Example 33 in WO 2013/178575]
When the recorded Amount of degradation after 2 h values are compared, which is smaller: that of P or that of Q ? Record your answer as the label of the chosen record.
P
